test system: Scirpus juncoides; assay: Test Example 2: herbicidal effect test by treatment during growing period in paddy field; format: in vivo; settings: treatment 7 days after sowing, 120 g/10a, evaluated 14 days after treatment
Recorded weed suppression rate, Scirpus juncoides, one value per entry.
assay metric: weed suppression rate, Scirpus juncoides

{"columns": ["compound", "observed result"],
 "data": [
  ["Cc1cc(F)ccc1N(C(=O)n1ncn(S(=O)(=O)C2CC2)c1=O)C(C)C [Compound 1-220]", "90%"],
  ["CC(C)N(C(=O)n1ncn(S(=O)(=O)N(C)C)c1=O)c1ccccc1F [Compound 1-1093]", "90%"],
  ["CC(C)N(C(=O)n1ncn(S(=O)(=O)C2CCCCC2)c1=O)c1ccc(F)cc1Cl [Compound 1-313]", "90%"],
  ["CC(C)N(C(=O)n1ncn(S(=O)(=O)C2CCCCC2)c1=O)c1ccccc1F [Compound 1-296]", "90%"],
  ["CC(C)N(C(=O)n1ncn(S(=O)(=O)C(C)C)c1=O)c1ccccc1 [Compound 1-54]", "90%"],
  ["CC(C)N(C(=O)n1ncn(S(=O)(=O)C2CC2)c1=O)c1ccc(F)cc1F [Compound 1-150]", "90%"],
  ["CC(C)N(C(=O)n1ncn(S(=O)(=O)C2CC2)c1=O)c1ccc(F)cc1 [Compound 1-171]", "90%"],
  ["CC(C)N(C(=O)n1ncn(S(=O)(=O)C2CCCCC2)c1=O)c1cccc(F)c1F [Compound 1-305]", "100%"],
  ["CC(C)N(C(=O)n1ncn(S(=O)(=O)N(C)C)c1=O)c1ccc(F)cc1F [Compound 1-1103]", "90%"],
  ["CC(C)N(C(=O)n1ncn(S(=O)(=O)C(C)C)c1=O)c1ccc(Cl)nc1Cl [Compound 1-98]", "90%"],
  ["CC(C)N(C(=O)n1ncn(S(=O)(=O)C2CCC2)c1=O)c1ccc(F)cc1F [Compound 1-269]", "90%"],
  ["CC(C)N(Cc1ccc(F)cc1F)C(=O)n1ncn(S(=O)(=O)C2CC2)c1=O [Compound 1-238]", "90%"],
  ["CC(C)N(C(=O)n1ncn(S(=O)(=O)C2CC2)c1=O)c1ccc(F)c(F)c1F [Compound 1-203]", "100%"],
  ["CC(C)N(C(=O)n1ncn(S(=O)(=O)C2CC2)c1=O)c1c(F)c(F)cc(F)c1F [Compound 1-206]", "100%"],
  ["CC(C)N(C(=O)n1ncn(S(=O)(=O)C2CC2)c1=O)c1ccccc1F [Compound 1-169]", "80%"],
  ["CC(C)N(C(=O)n1ncn(S(=O)(=O)N2CCCCC2)c1=O)c1ccc(F)cc1F [Compound 1-1143]", "90%"],
  ["CC(C)N(C(=O)n1ncn(S(=O)(=O)C2CCCCC2)c1=O)c1ccc(F)c(F)c1F [Compound 1-309]", "100%"]
]}

====

test system: Monochoria vaginalis; test: Test Example 12: herbicidal effect test by treatment during growing period in paddy field; type: in vivo; settings: 120 g/10a; treatment seven days after sowing in flooded paddy pot; assessed 14 days after treatment
assay metric: Weed suppression rate (%) Monochoria vaginalis

{"columns": ["compound", "observed result"],
 "data": [
  ["CC(C)N(C(=O)n1cnn(S(=O)(=O)C2CC2)c1=O)c1ccc(Br)cc1Cl [Compound 11-209]", "90%"],
  ["CC(C)N(C(=O)n1cnn(S(C)(=O)=O)c1=O)c1ccccc1F [Compound 11-2]", "80%"],
  ["CCN(C)S(=O)(=O)n1ncn(C(=O)N(c2ccc(F)cc2F)C(C)C)c1=O [Compound 11-1098]", "80%"],
  ["CC(C)N(C(=O)n1cnn(S(=O)(=O)C2CC2)c1=O)c1ccc(Cl)nc1Cl [Compound 11-238]", "90%"],
  ["CC(C)N(C(=O)n1cnn(S(=O)(=O)N2CCCCC2)c1=O)c1ccc(F)cc1F [Compound 11-1102]", "80%"],
  ["CC(C)N(C(=O)n1cnn(S(C)(=O)=O)c1=O)c1cccc(F)c1 [Compound 11-3]", "80%"],
  ["CC(C)N(Cc1ccc(F)cc1F)C(=O)n1cnn(S(=O)(=O)c2cccs2)c1=O [Compound 11-1046]", "90%"],
  ["CCC(C)S(=O)(=O)n1ncn(C(=O)N(c2ccc(F)cc2F)C(C)C)c1=O (centres unmarked) [Compound 11-93]", "90%"]
]}

====

Recorded Weed suppression rate (%) Echinochloa crus-galli, one value per entry.
system: Echinochloa crus-galli; test: Test Example 12: herbicidal effect test by treatment during growing period in paddy field; assay type: in vivo; details: 120 g/10a; treatment seven days after sowing in flooded paddy pot; assessed 14 days after treatment
assay metric: Weed suppression rate (%) Echinochloa crus-galli

{"columns": ["molecule smiles", "subject of test", "unit label", "observed result"],
 "data": [
  ["Cc1cc(C)c(S(=O)(=O)n2ncn(C(=O)N(c3ccc(Cl)cn3)C(C)C)c2=O)c(C)c1", "Echinochloa crus-galli", "%", 100],
  ["CN(C(=O)n1cnn(S(=O)(=O)c2ccc(C(C)(C)C)cc2)c1=O)c1ccc(F)cc1F", "Echinochloa crus-galli", "%", 90],
  ["CCS(=O)(=O)n1ncn(C(=O)N(C)c2ccc(F)cc2F)c1=O", "Echinochloa crus-galli", "%", 100],
  ["CC(C)N(C(=O)n1cnn(S(C)(=O)=O)c1=O)c1c(F)c(F)cc(F)c1F", "Echinochloa crus-galli", "%", 100],
  ["CC(C)N(C(=O)n1cnn(S(=O)(=O)C2CC2)c1=O)c1ccc(C(F)(F)F)cc1Cl", "Echinochloa crus-galli", "%", 90],
  ["Cc1ccc(S(=O)(=O)n2ncn(C(=O)N(c3c(F)cc(F)cc3F)C(C)C)c2=O)cc1", "Echinochloa crus-galli", "%", 100],
  ["CC(C)N(C(=O)n1cnn(S(=O)(=O)N(C)C)c1=O)c1ccc(F)cc1F", "Echinochloa crus-galli", "%", 100],
  ["CC(C)N(C(=O)n1cnn(S(=O)(=O)C(C)C)c1=O)c1cccc(F)c1F", "Echinochloa crus-galli", "%", 100],
  ["CC(C)N(C(=O)n1cnn(S(=O)(=O)c2ccc(C(C)(C)C)cc2)c1=O)c1ccc(F)cc1F", "Echinochloa crus-galli", "%", 90],
  ["CC(C)N(C(=O)n1cnn(S(=O)(=O)C2CC2)c1=O)c1ccc(C(F)(F)F)cc1F", "Echinochloa crus-galli", "%", 100],
  ["CC(C)N(C(=O)n1cnn(S(=O)(=O)C2CC2)c1=O)c1cccc(F)c1F", "Echinochloa crus-galli", "%", 100],
  ["Cc1ccc(N(C(=O)n2cnn(S(=O)(=O)c3ccccc3F)c2=O)C(C)C)c(F)c1", "Echinochloa crus-galli", "%", 90],
  ["CC(C)N(C(=O)n1cnn(S(=O)(=O)c2ccccc2Cl)c1=O)c1ccccc1F", "Echinochloa crus-galli", "%", 90],
  ["CCc1ccc(S(=O)(=O)n2ncn(C(=O)N(c3ccc(F)cc3F)C(C)C)c2=O)cc1", "Echinochloa crus-galli", "%", 100],
  ["CC(C)N(C(=O)n1cnn(S(=O)(=O)c2cccs2)c1=O)c1cccc(F)c1F", "Echinochloa crus-galli", "%", 100],
  ["Cc1ccc(N(C(=O)n2cnn(S(=O)(=O)c3ccccc3Cl)c2=O)C(C)C)c(F)c1", "Echinochloa crus-galli", "%", 90]
]}

====

Recorded Weed suppression rate (%) Echinochloa crus-galli, one value per entry.
tested on: Echinochloa crus-galli; assay: Test Example 11: herbicidal effect test by soil treatment in paddy field; format: in vivo; conditions: 120 g/10a active ingredient, 14 days after treatment
assay metric: Weed suppression rate (%) Echinochloa crus-galli

{"columns": ["molecule smiles", "unit label", "observed result"],
 "data": [
  ["CC(C)N(C(=O)n1cnn(S(=O)(=O)c2cccs2)c1=O)c1ccc(Cl)cc1Br", "%", 100],
  ["CC(C)N(C(=O)n1cnn(S(=O)(=O)C2CC2)c1=O)c1cccc(F)c1F", "%", 100],
  ["Cc1ccc(S(=O)(=O)n2ncn(C(=O)N(c3ccccc3)C(C)C)c2=O)cc1", "%", 100],
  ["Cc1ccccc1S(=O)(=O)n1ncn(C(=O)N(c2ccc(F)cc2F)C(C)C)c1=O", "%", 100],
  ["CCN(CC)C(=O)n1cnn(S(=O)(=O)c2ccc(F)cc2)c1=O", "%", 90],
  ["CC(C)N(C(=O)n1cnn(S(=O)(=O)c2cccc(F)c2)c1=O)c1ccccc1", "%", 100],
  ["Cc1ccc(S(=O)(=O)n2ncn(C(=O)N(c3c(F)cc(F)cc3F)C(C)C)c2=O)cc1", "%", 100],
  ["CC(C)N(C(=O)n1cnn(S(C)(=O)=O)c1=O)c1ccc(F)c(F)c1F", "%", 90],
  ["CC(C)N(C(=O)n1cnn(S(=O)(=O)Cc2ccccc2)c1=O)c1ccc(F)cc1F", "%", 90],
  ["CC(C)N(C(=O)n1cnn(S(=O)(=O)c2c(F)cccc2F)c1=O)c1ccccc1", "%", 90],
  ["CCN(CC)C(=O)n1cnn(S(=O)(=O)c2ccccc2Cl)c1=O", "%", 90],
  ["CC(C)N(C(=O)n1cnn(S(=O)(=O)c2cccc(Cl)c2)c1=O)c1ccc(Cl)cn1", "%", 90],
  ["Cc1cc(C)c(S(=O)(=O)n2ncn(C(=O)N(c3cccc(F)c3)C(C)C)c2=O)c(C)c1", "%", 100],
  ["Cc1cc(Cl)ccc1N(C(=O)n1cnn(S(=O)(=O)C2CC2)c1=O)C(C)C", "%", 100],
  ["CC(C)N(C(=O)n1cnn(S(=O)(=O)c2ccc(C(C)(C)C)cc2)c1=O)c1ccc(F)cc1Cl", "%", 90],
  ["Cc1cc(Cl)ccc1N(C(=O)n1cnn(S(=O)(=O)N(C)C)c1=O)C(C)C", "%", 90],
  ["CC(C)N(C(=O)n1cnn(S(=O)(=O)C(C)C)c1=O)c1ccc(F)cc1Cl", "%", 90],
  ["CC(C)N(C(=O)n1cnn(S(=O)(=O)c2cccc(Cl)c2)c1=O)c1ccc(F)c(F)c1F", "%", 100],
  ["CC(C)N(C(=O)n1cnn(S(=O)(=O)C2CC2)c1=O)c1c(F)cc(F)cc1F", "%", 100],
  ["CC(C)N(C(=O)n1cnn(S(=O)(=O)C(C)C)c1=O)c1cccc(F)c1", "%", 90],
  ["CC(C)N(C(=O)n1cnn(S(=O)(=O)C(C)C)c1=O)c1ccccc1", "%", 90],
  ["CC(C)N(Cc1ccc(F)cc1F)C(=O)n1cnn(S(=O)(=O)N(C)C)c1=O", "%", 90],
  ["CC(C)N(C(=O)n1cnn(S(=O)(=O)c2c(F)c(F)c(F)c(F)c2F)c1=O)c1ccccc1F", "%", 90],
  ["CC(C)N(C(=O)n1cnn(S(=O)(=O)c2ccccc2Cl)c1=O)c1ccc(F)cc1Cl", "%", 100],
  ["CC(C)N(C(=O)n1cnn(S(=O)(=O)C2CCCCC2)c1=O)c1ccc(Br)cc1Cl", "%", 100],
  ["COc1ccc(S(=O)(=O)n2ncn(C(=O)N(c3c(F)cc(F)cc3F)C(C)C)c2=O)cc1", "%", 100],
  ["CC(C)N(C(=O)n1cnn(S(=O)(=O)C2CC2)c1=O)c1ccc(Br)cc1Cl", "%", 100],
  ["CC(C)N(C(=O)n1cnn(S(=O)(=O)C2CC2)c1=O)c1ccc(C#N)cc1Cl", "%", 90],
  ["Cc1cc(C)c(S(=O)(=O)n2ncn(C(=O)N(c3cccc(F)c3F)C(C)C)c2=O)c(C)c1", "%", 100],
  ["COc1ccc(S(=O)(=O)n2ncn(C(=O)N(c3cccc(F)c3F)C(C)C)c2=O)cc1", "%", 100],
  ["CC(C)N(C(=O)n1cnn(S(C)(=O)=O)c1=O)c1ccc(F)cc1F", "%", 100],
  ["CC(C)N(C(=O)n1cnn(S(C)(=O)=O)c1=O)c1ccc(F)cc1Cl", "%", 90]
]}
